- target: HCV NS3-4A serine protease (full-length NS3-4A protein, genotype 1a, strain HCV-1) (Hepatitis C virus genotype 1a, UniProt P26664)
- Construct: using the full-length NS3-4A protein (genotype 1a, strain HCV-1)
- Sequence (P26664 1658-1711): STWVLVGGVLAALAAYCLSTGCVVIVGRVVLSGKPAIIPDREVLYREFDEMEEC
- Sequence (P26664 1027-1657): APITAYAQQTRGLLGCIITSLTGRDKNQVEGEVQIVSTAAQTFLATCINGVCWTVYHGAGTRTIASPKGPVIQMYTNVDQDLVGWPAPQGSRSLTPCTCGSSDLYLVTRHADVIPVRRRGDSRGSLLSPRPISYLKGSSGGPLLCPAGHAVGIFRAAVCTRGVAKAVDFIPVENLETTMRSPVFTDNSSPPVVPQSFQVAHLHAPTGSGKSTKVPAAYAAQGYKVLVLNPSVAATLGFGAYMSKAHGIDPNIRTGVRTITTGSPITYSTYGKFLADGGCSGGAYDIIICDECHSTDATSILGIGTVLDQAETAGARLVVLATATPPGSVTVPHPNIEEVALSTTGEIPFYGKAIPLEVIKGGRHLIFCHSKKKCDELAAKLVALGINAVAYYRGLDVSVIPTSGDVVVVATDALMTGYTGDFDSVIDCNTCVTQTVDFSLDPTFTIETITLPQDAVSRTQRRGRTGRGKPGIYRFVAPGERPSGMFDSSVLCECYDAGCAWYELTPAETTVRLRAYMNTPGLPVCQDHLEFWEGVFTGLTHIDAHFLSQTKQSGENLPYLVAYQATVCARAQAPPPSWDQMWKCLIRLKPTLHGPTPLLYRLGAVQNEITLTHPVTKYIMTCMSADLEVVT
- test protocol: HCV NS3-4A protease assay
- Type: biochemical
- cond: Protease IC50
pIC50: −log10 of the molar value.

{"columns": ["smiles code", "pIC50"],
 "data": [
  ["C=C[C@@H]1C[C@]1(NC(=O)[C@@H]1C[C@@]2(CN1C(=O)[C@@H](NC(=O)[C@@H](NC(=O)[C@@H]1CCCCN1C(C)C)C(C)(C)C)C(C)(C)C)C(C)(C)C21CCC1)C(=O)NS(=O)(=O)c1ccccc1", 8.35],
  ["C=C[C@@H]1C[C@]1(NC(=O)[C@@H]1C[C@@]2(CN1C(=O)[C@@H](NC(=O)[C@@H](NC(=O)c1[nH]c(C)c(C)c1C(C)=O)C1CCCCC1)C(C)(C)C)C(C)(C)C21CCC1)C(=O)NS(=O)(=O)C1CC1", 8.85],
  ["C=C[C@@H]1C[C@]1(NC(=O)[C@@H]1C[C@@]2(CN1C(=O)[C@@H](NC(=O)[C@@H](NC(=O)[C@H]1CCCCN1C(C)C)C(C)(C)C)C(C)(C)C)C(C)(C)C21CCC1)C(=O)NS(=O)(=O)C1CC1", 8.52],
  ["C=C[C@@H]1C[C@]1(NC(=O)[C@@H]1C[C@@]2(CN1C(=O)[C@@H](NC(=O)[C@@H](NC(=O)c1ncccn1)C1CCCCC1)C(C)(C)C)C(C)(C)C21CCC1)C(=O)NS(=O)(=O)C1CC1", 8.10],
  ["C=C[C@@H]1C[C@]1(NC(=O)[C@@H]1C[C@@]2(CN1C(=O)[C@@H](NC(=O)[C@@H](NC(=O)[C@@H]1CCCCN1CC)C1CCCCC1)C(C)(C)C)C(C)(C)C21CCC1)C(=O)NS(=O)(=O)C(F)(F)F", 8.70],
  ["C=C[C@@H]1C[C@]1(NC(=O)[C@@H]1C[C@@]2(CN1C(=O)[C@@H](NC(=O)[C@@H](NC(=O)c1cncnc1)C1CCCCC1)C(C)(C)C)C(C)(C)C21CCC1)C(=O)NS(=O)(=O)C1CC1", 9.22],
  ["C=C[C@@H]1C[C@]1(NC(=O)[C@@H]1C[C@@]2(CN1C(=O)[C@@H](NC(=O)[C@@H](NC(=O)c1cc(C(C)(C)C)n[nH]1)C(C)(C)C)C(C)(C)C)C(C)(C)C21CCC1)C(=O)NS(=O)(=O)C1CC1", 8.26],
  ["C=C[C@@H]1C[C@]1(NC(=O)[C@@H]1C[C@@]2(CN1C(=O)[C@@H](NC(=O)[C@@H](NC(=O)c1cnccn1)C1CCCCC1)C(C)(C)C)C(C)(C)C21CCC1)C(=O)NS(=O)(=O)C1CC1", 9.10],
  ["C=C[C@@H]1C[C@]1(NC(=O)[C@@H]1C[C@@]2(CN1C(=O)[C@@H](NC(=O)[C@@H](NC(=O)[C@@H]1CCCN1C(C)C)C1CCCCC1)C(C)(C)C)C(C)(C)C21CCC1)C(=O)NS(=O)(=O)c1ccccc1", 9.15]
]}

====

- target: HCV NS3-4A serine protease (full-length NS3-4A protein, genotype 1a, strain HCV-1) (Hepatitis C virus genotype 1a)
- Construct: using the full-length NS3-4A protein (genotype 1a, strain HCV-1)
- test protocol: HCV NS3-4A protease assay
- Assay type: biochemical
- cond: Protease IC50
pIC50: −log10 of the molar value.

{"columns": ["compound", "pIC50"],
 "data": [
  ["CCCC1(S(=O)(=O)NC(=O)[C@@]2(NC(=O)[C@@H]3C[C@@]4(CN3C(=O)[C@@H](NC(=O)[C@@H](NC(=O)[C@@H]3CCCN3CC)C3CCCCC3)C(C)(C)C)C(C)(C)C43CCC3)C[C@H]2CC)CC1", 8.15],
  ["CC[C@@H]1C[C@]1(NC(=O)[C@@H]1C[C@@]2(CN1C(=O)[C@@H](NC(=O)[C@@H](NC(=O)[C@@H]1CCCCN1C(C)C)C1CCCCC1)C(C)(C)C)C(C)(C)C21CCC1)C(=O)NS(=O)(=O)C1(C)CC1", 8.70],
  ["C=C[C@@H]1C[C@]1(NC(=O)[C@@H]1C[C@@]2(CN1C(=O)[C@@H](NC(=O)[C@@H](NC(=O)c1ccccc1)C1CCCCC1)C(C)(C)C)C(C)(C)C21CCC1)C(=O)NS(=O)(=O)C1CC1", 8.82],
  ["C=C[C@@H]1C[C@]1(NC(=O)[C@@H]1C[C@@]2(CN1C(=O)[C@@H](NC(=O)[C@@H](NC(=O)c1ccccn1)C1CCCCC1)C(C)(C)C)C(C)(C)C21CCC1)C(=O)NS(=O)(=O)C1CC1", 9.00],
  ["C=C[C@@H]1C[C@]1(NC(=O)[C@@H]1C[C@@]2(CN1C(=O)[C@@H](NC(=O)[C@@H](NC(=O)[C@@H]1CCCCN1CC)C1CCCCC1)C(C)(C)C)C(C)(C)C21CCC1)C(=O)NS(=O)(=O)C1(C)CC1", 8.52],
  ["C=C[C@@H]1C[C@]1(NC(=O)[C@@H]1C[C@@]2(CN1C(=O)[C@@H](NC(=O)[C@@H](NC(=O)[C@@H]1CCCCN1CCF)C(C)(C)C)C(C)(C)C)C(C)(C)C21CCC1)C(=O)NS(=O)(=O)c1cccc2cc[nH]c12", 8.19],
  ["C=C[C@H]1C[C@@]1(NC(=O)[C@@H]1C[C@@]2(CN1C(=O)[C@@H](NC(=O)[C@@H](NC(=O)c1ccccc1N(C)C)C(C)(C)C)C(C)(C)C)C(C)(C)C21CCC1)C(=O)NS(=O)(=O)C1CC1", 8.26],
  ["C=C[C@H]1C[C@@]1(NC(=O)[C@@H]1C[C@@]2(CN1C(=O)[C@@H](NC(=O)[C@@H](NC(=O)C1CNC(=O)C1)C1CCCCC1)C(C)(C)C)C(C)(C)C21CCC1)C(=O)NS(=O)(=O)C1CC1 (some centres unmarked)", 9.22],
  ["C=C[C@@H]1C[C@]1(NC(=O)[C@@H]1C[C@@]2(CN1C(=O)[C@@H](NC(=O)[C@@H](NC(=O)c1cccnc1)C1CCCCC1)C(C)(C)C)C(C)(C)C21CCC1)C(=O)NS(=O)(=O)C1CC1", 9.05],
  ["C=C[C@@H]1C[C@]1(NC(=O)[C@@H]1C[C@@]2(CN1C(=O)[C@@H](NC(=O)[C@@H](NC(=O)C1CNC(=O)N1)C(C)(C)C)C(C)(C)C)C(C)(C)C21CCC1)C(=O)NS(=O)(=O)C1CC1 (some centres unmarked)", 8.00],
  ["C=C[C@@H]1C[C@]1(NC(=O)[C@@H]1C[C@@]2(CN1C(=O)[C@@H](NC(=O)[C@@H](NC(=O)[C@@H]1CCCN(CC)C1)C1CCCCC1)C(C)(C)C)C(C)(C)C21CCC1)C(=O)NS(=O)(=O)C1CC1", 9.15]
]}
